tested on: MKL-2; assay: qHTS assay to identify novel small-molecules to repurpose for Merkel cell carcinoma treatment (AID 1296009); details: MCC and control cell lines, CellTiter-Glo viability, 72 h; series mostly up to 46 µM; note: nearly all actives have a fitted effect of over 60% in size
Results filed as inconclusive are left out. The source made the active and inactive calls. Calls come from the whole dose curve; as a rule, active = well fitted inhibition curve with a large enough effect; inconclusive = small, poorly fitted or top-dose-only effect; inactive = flat fitted curve, though single readings scatter.
Pick one and only one: class 1 (active), class 0 (inactive)

Test call, this compound: CC(=O)[C@H]1CC[C@H]2[C@@H]3C=CC4=CC(=O)CC[C@@]4(C)[C@@H]3CC[C@]12C
class 0

Try the compound Cc1sccc1Br
class 0

Try the compound CN1[C@@H]2CC[C@H]1CC(NC(=O)n1c(=O)[nH]c3ccccc31)C2 (some centres not stated)
class 0

Try the compound CN1Cc2cc(C(=O)N3CCC(C4CCNCC4)CC3)ccc2N[C@@H](CC(=O)O)C1=O
class 0

Try the compound O=C1CCCc2c(O)cccc21
class 0

Try the compound Cc1coc2ccccc2c1=O
class 0

Try the compound Cn1c(=O)c2c(ncn2CC(=O)O)n(C)c1=O
class 0

Try the compound CCc1cc(S(=O)(=O)O)c2cc(C(C)C)cccc1-2
class 0

Try the compound COc1cc(NS(=O)(=O)c2ccc(N)cc2)nc(C)n1
class 0

Try the compound COc1ccc(CCC(C)=O)cc1
class 0

Try the compound CC(=O)OC/C=C(C)/C=C/C=C(C)/C=C/C1=C(C)CCCC1(C)C
class 1

Try the compound CN1N=C(C(N)=O)CCC1=O
class 0
